Biological target: acetylcholine receptor
Assay: SPR, peptide at 10 uM on acetylcholine receptor
REPORTED PROPERTY: Binding affinity (RU)

BINDER: RCAAR [5mer-652]
REPORTED PROPERTY: Binding affinity (RU)
MEASURED NUMBER: 23
--
BINDER: KKTHK [5mer-967]
REPORTED PROPERTY: Binding affinity (RU)
MEASURED NUMBER: 26
--
BINDER: KYAKR [5mer-972]
REPORTED PROPERTY: Binding affinity (RU)
MEASURED NUMBER: 14
--
BINDER: RPEDK [5mer-650]
REPORTED PROPERTY: Binding affinity (RU)
MEASURED NUMBER: 22
